Assay: Rat PK evaluation
Format: in vivo
Conditions: rat, plasma; SD rats, PO 5 mg/kg, n = 3, median; read-out: Tmax po (time to peak plasma concentration)
MEASUREMENT KIND: Tmax (h)
Kindly provide the numeric value in h only, without the unit symbol.

Query: Param item = COc1cc2nccc(Oc3cnc(NC(=O)c4cn(C5CC5)cc(-c5ccc(F)cc5)c4=O)nc3)c2cc1OC [Compound 32] ; retrieve measured Tmax.
Reply: 4

Query: Param item = COc1cc2nccc(Oc3ccc(NC(=O)c4cn(C(C)C)nc(-c5ccc(F)cc5)c4=O)cn3)c2cc1OC [Compound 38] ; retrieve measured Tmax.
Reply: 4

Query: Param item = COc1cc2nccc(Oc3ccc(NC(=O)c4cn(C(C)C)cc(-c5ccc(F)cc5)c4=O)nc3)c2cc1OC [Compound 14] ; retrieve measured Tmax.
Reply: 2

Query: Param item = COc1cc2nccc(Oc3cnc(NC(=O)c4nn(C(C)C)cc(-c5ccc(F)cc5)c4=O)nc3)c2cc1OC [Compound 16] ; retrieve measured Tmax.
Reply: 1

Query: Param item = COc1cc2nccc(Oc3ccc(NC(=O)c4cn(C(C)C)nc(-c5ccc(F)cc5)c4=O)nc3)c2cc1OC [Compound 41] ; retrieve measured Tmax.
Reply: 4

Query: Param item = COc1cc2nccc(Oc3ccc(NC(=O)c4nn(C5CC5)cc(-c5ccc(F)cc5)c4=O)nc3)c2cc1OC [Compound 31] ; retrieve measured Tmax.
Reply: 4
